# method.notes: Study A16 Part 1: PK of single ascending oral doses of fospropofol disodium (200 to 2000 mg), fasted healthy adults
# Assay type: in vivo, human
# run.parameters: both sexes, human, plasma, po, 1000 mg, oral fospropofol disodium 1000 mg; median; read-out: Fospropofol Tmax
readout: Tmax (min)
Write it as a number; the unit min goes unstated.

Task: Give the reported Tmax for this molecule. CC(C)c1cccc(C(C)C)c1OCOP(=O)(O)O [fospropofol]
Result: 19.8

====

# method.notes: Study A16 Part 1: PK of single ascending oral doses of fospropofol disodium (200 to 2000 mg), fasted healthy adults
# Assay type: in vivo, human
# run.parameters: both sexes, human, plasma, po, 1200 mg, Propofol Cmax Maximum, oral fospropofol disodium 1200 mg
readout: Cmax (ng/mL)
Write it as a number; the unit ng/mL goes unstated.

Task: Give the reported Cmax for this compound. CC(C)c1cccc(C(C)C)c1O [propofol, 2,6-diisopropylphenol]
Result: 1190
